- targetSystem: SmosOBP12 (Sitodiplosis mosellana)
- assayNotes: Fluorescence competitive binding assay with 1-NPN probe, recombinant SmosOBP12
- condition: fluorescence competitive binding
readoutLabel: binding to SmosOBP12 (in words)

> print(dat)
                     compound  observedmeasurement
1  CCCCCCCCCCCC=O [Dodecanal]                bound

###

- targetSystem: SmosOBP12 (Sitodiplosis mosellana, UniProt A0A346RTY7)
- Sequence (A0A346RTY7 entry or part of it): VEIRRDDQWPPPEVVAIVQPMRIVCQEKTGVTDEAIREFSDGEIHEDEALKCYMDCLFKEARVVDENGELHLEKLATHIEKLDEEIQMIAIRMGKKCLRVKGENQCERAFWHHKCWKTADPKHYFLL
- assayNotes: Fluorescence competitive binding assay with 1-NPN probe, recombinant SmosOBP12
- condition: displacement of 1-NPN; 2 μM protein, 2 μM 1-NPN, ligand 2–14 μM; three independent measurements; read-out: SmosOBP12 IC50
readoutLabel: pIC50
Please treat pIC50 as minus the base-10 logarithm of the molar concentration.

Below are worked cases with known answers.
> print(dat)
                                   compound  observedmeasurement
1           CCCCCCCOC(C)=O [Heptyl acetate]                 5.39
2    CC1=CCC2C(C1)C2(C)C (stereo not shown)                 5.32
3  CC/C=C\CCOC(C)=O [(Z)-3-Hexenyl acetate]                 5.05
4                             CCCCC(=O)CCCC                 5.08

From here, focus on the item given below.
May I ask what pIC50 has been recorded for CC(C)(CO)[C@@H](O)C(=O)NCCCO ? 5.30

###

- targetSystem: SmosOBP17 (Sitodiplosis mosellana)
- Sequence (A0A346RTY9 entry or part of it): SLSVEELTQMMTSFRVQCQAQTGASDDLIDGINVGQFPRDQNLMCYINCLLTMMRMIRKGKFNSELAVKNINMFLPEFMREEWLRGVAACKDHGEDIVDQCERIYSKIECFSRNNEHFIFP
- assayNotes: Fluorescence competitive binding assay with 1-NPN probe, recombinant SmosOBP17
- condition: calculated from IC50, Ki = [IC50]/(1 + [1-NPN]/K1-NPN)
pKi: −log10 of the molar value.
readoutLabel: pKi

// known answers, use as guide
> print(dat)
                                   molecule                        targetsystem  readoutlabel  observedmeasurement
1             CCCCCCOC(C)=O [Hexyl acetate]  SmosOBP17 (Sitodiplosis mosellana)           pKi                 4.59
2                CCCCCCCCCCCC=O [Dodecanal]  SmosOBP17 (Sitodiplosis mosellana)           pKi               < 4.52
3                   CCCC(=O)CC [3-Hexanone]  SmosOBP17 (Sitodiplosis mosellana)           pKi                 4.55
4                   CCCCCCCCCCCC [Dodecane]  SmosOBP17 (Sitodiplosis mosellana)           pKi               < 4.52
5  CC1=CC[C@@]23CC1C(C)(C)[C@@H]2CC[C@H]3C [α-Cedrene]  SmosOBP17 (Sitodiplosis mosellana)           pKi               < 4.52

Please look up its pKi: C/C1=C\CC/C(C)=C/CC(C)(C)/C=C/C1 [α-Humulene] < 4.52

For the molecule CCCCCCCCCCCCCCC [Pentadecane] , what pKi is on record? < 4.52

# lookup: pKi of CCCCC(CC)CO (centres unmarked) [2-Ethyl hexanol] < 4.52

###

- targetSystem: SmosOBP17 (Sitodiplosis mosellana)
- assayNotes: Fluorescence competitive binding assay with 1-NPN probe, recombinant SmosOBP17
- condition: 2 µM protein titrated with 1-NPN 0–24 µM; read-out: dissociation constant (Kd) of SmosOBP17 with 1-NPN
readoutLabel: Kd (µM)
Give just the numeric value; µM need not be written.

What value of Kd has been recorded for this entry: c1ccc(Nc2cccc3ccccc23)cc1 [1-NPN, 1-N-phenyl-naphthylamine, reference compound] 3.02

###

Each item that follows carries a reported IC50.
- targetSystem: SmosOBP12 (Sitodiplosis mosellana, UniProt A0A346RTY7)
- assayNotes: Fluorescence competitive binding assay with 1-NPN probe, recombinant SmosOBP12
- condition: displacement of 1-NPN; 2 μM protein, 2 μM 1-NPN, ligand 2–14 μM; three independent measurements; read-out: SmosOBP12 IC50
Quick note: give the figure in µM, leave out the unit.

So what does the record say about IC50 for CCCCCCC(=O)OCC [Ethyl heptanoate] ? 9

Please give the measured IC50 for this compound: CCCCC(CC)CO (centres unmarked) 7.86

Fill in the blank: the reported IC50 of CCCCCCCCCCCO is ____. 5.43

Data request, read-out IC50, for CCCCCCCCCCCC=O 9.94

Item C=CC(O)CCCCC (centres unmarked) has what recorded IC50? 6.55

Would you mind telling me what IC50 value was observed for CCCC(=O)CC ? 7.74

Report IC50 for CCCCCCOC(C)=O [Hexyl acetate] please. 12.9

Data request, read-out IC50, for C=CC(C)=CCC=C(C)C 10.2

###

- targetSystem: SmosOBP12 (Sitodiplosis mosellana, UniProt A0A346RTY7)
- assayNotes: Fluorescence competitive binding assay with 1-NPN probe, recombinant SmosOBP12
- condition: 2 µM protein titrated with 1-NPN 0–24 µM; read-out: dissociation constant (Kd) of SmosOBP12 with 1-NPN
readoutLabel: pKd
Convention used: pKd is expressed as -log10 of the molar concentration.

For the compound c1ccc(Nc2cccc3ccccc23)cc1 [1-NPN, 1-N-phenyl-naphthylamine, reference compound] , what pKd is on record? 5.37

###

Below, each entry is listed with its recorded pIC50.
- targetSystem: SmosOBP17 (Sitodiplosis mosellana)
- assayNotes: Fluorescence competitive binding assay with 1-NPN probe, recombinant SmosOBP17
- condition: displacement of 1-NPN; 2 μM protein, 2 μM 1-NPN, ligand 2–40 μM; three independent measurements; read-out: SmosOBP17 IC50
pIC50: −log10 of the molar value.

Completed entries (count: 3):
> print(dat)
                         molecule  observedmeasurement
1               C=CC(C)=CCC=C(C)C               < 4.40
2   CCCCCCOC(C)=O [Hexyl acetate]                 4.47
3  CCCCC(CC)CO (centres unmarked)               < 4.40

For the molecule shown here, CCCCC(=O)CCCC , give the reported pIC50. < 4.40

Fill in: pIC50 of CCCCCCCCCCCCC is ___ < 4.40

What does the record list as pIC50 for CCCCCCCCCCCO ? < 4.40

Quick one: pIC50 for C=CC(O)CCCCC (centres unmarked) ? < 4.40

Please give the measured pIC50 for this molecule: CCCCCCCCCCCC < 4.40

So what's the measured pIC50 for this one? CCCCCOC(=O)CCCC [Pentyl pentanoate] < 4.40

So what's the measured pIC50 for this one? CCCCCCC(=O)OCC [Ethyl heptanoate] 4.42

Endpoint output: pIC50 of CCCCCCCCCCCC=O . Value? < 4.40

# lookup: pIC50 of C=C/C(C)=C/C/C=C(\C)CCC=C(C)C < 4.40

Recorded pIC50 of CCCC(=O)CC , please. 4.43

Using the record for C/C1=C\CC/C(C)=C/CC(C)(C)/C=C/C1 , report its pIC50. < 4.40

Please report the recorded pIC50 for CCCCCCCCCCCCCCC . < 4.40

Need pIC50 of CC1=CCC2C(C1)C2(C)C (centres unmarked) , thanks. < 4.40

Request the reported pIC50 associated with CCCCCCCCCCCC(C)=O < 4.40

Consider the molecule shown here: CCCCCCCOC(C)=O [Heptyl acetate] What is its recorded pIC50? 4.54

Fill in the blank: the reported pIC50 of CC(=O)OCCCCCC(C)C [Isooctyl acetate] is ____. < 4.40

May I ask what pIC50 has been recorded for CC/C=C\CCOC(C)=O [(Z)-3-Hexenyl acetate] ? < 4.40

Name the reported pIC50 value associated with the molecule CC(C)(CO)[C@@H](O)C(=O)NCCCO 4.42

So what does the record say about pIC50 for CC1=CC[C@@]23CC1C(C)(C)[C@@H]2CC[C@H]3C ? < 4.40

I have this molecule here, CCCC(O)CC (centres unmarked) , and I need its recorded pIC50. 4.46

###

- targetSystem: SmosOBP17 (Sitodiplosis mosellana)
- assayNotes: Fluorescence competitive binding assay with 1-NPN probe, recombinant SmosOBP17
- condition: fluorescence competitive binding
readoutLabel: binding to SmosOBP17 (in words)

> print(dat)
                               compound  observedmeasurement
1                        CCCCCCCCCCCC=O         did not bind
2        CCCCC(CC)CO (centres unmarked)         did not bind
3  CC1=CCC2CC1C2(C)C (centres unmarked)         did not bind

###

- targetSystem: SmosOBP12 (Sitodiplosis mosellana, UniProt A0A346RTY7)
- assayNotes: Fluorescence competitive binding assay with 1-NPN probe, recombinant SmosOBP12
- condition: SmosOBP12 Ki, calculated from IC50, Ki = [IC50]/(1 + [1-NPN]/K1-NPN)
readoutLabel: Ki (µM)
Reply with just the number (in µM).

> print(dat)
                               compound  unitofmeasure  observedmeasurement
1  CC1=CCC2CC1C2(C)C (stereo not shown)             µM                 6.17

Could you share which Ki value was measured for CCCCC(C)=O ? 10.2

Requested field: Ki. Item: COC(=O)c1ccccc1O [Methyl salicylate] 9.62
